# test.summary: Half life of compound in phosphate buffer at pH 7.4 and 37 degree C under neutral aqueous condition in presence of excess glutathione
# Format: physicochemical
# conditions: phosphate buffer with excess glutathione
half-life by entry:
observation.type: half-life

>>> value_reported("CNC(=O)[C@H](CSC(F)C(=O)N[C@@H](C)C(=O)Nc1cc(Nc2ncc(C(F)(F)F)c(-c3c[nH]c4ccccc34)n2)c(OC)cc1N(C)CCN(C)C)NC(C)=O (some centres not stated)")
"11.2 h"
>>> value_reported("COc1cc(N(C)CCN(C)C)c(NC(=O)[C@H](C)NC(=O)C(F)Cl)cc1Nc1ncc(C(F)(F)F)c(-c2c[nH]c3ccccc23)n1 (some centres not stated)")
"49.4 h"
